The values you see were collected from paper PMC12677843.

Examples of molecules with documented pEC50 follow.
Tested on: adult S. mansoni
procedureText: In vitro drug sensitivity assay on adult S. mansoni (microscopic viability scoring)
Type: cell-based, Schistosoma mansoni
appliedConditions: Schistosoma mansoni, 48 h, 48 h drug exposure, 37 °C, 5% CO2; read-out: EC50 on adult S. mansoni, 48 h
pEC50: −log10 of the molar value.
metric: pEC50

- molecule: "O=C(Nc1ncc([N+](=O)[O-])s1)C12CC3CC(CC(C3)C1)C2 [Compound D1]"
  valueMeasured: 5.38
- molecule: "O=C1NCCN1c1ncc([N+](=O)[O-])s1"
  valueMeasured: 5.11

###

Test system: S. mansoni newly transformed schistosomula (NTS)
procedureText: In vitro evaluation on newly transformed schistosomula (NTS)
Format: cell-based, Schistosoma mansoni
appliedConditions: Schistosoma mansoni; 72 h incubation, 37 °C, 5% CO2
metric: EC50

- molecule: "Nc1ncc([N+](=O)[O-])s1 [Compound 2]"
  valueMeasured: "> 50 µM"
- molecule: "O=C1N(Cc2ccccc2)CCN1c1ncc([N+](=O)[O-])s1 [Compound C2]"
  valueMeasured: "> 50 µM"
- molecule: "O=C(Nc1ncc([N+](=O)[O-])s1)C12CC3CC(CC(C3)C1)C2 [Compound D1]"
  valueMeasured: "7.9 µM"
- molecule: "O=C1NCCN1c1ncc([N+](=O)[O-])s1 [Niridazole, niridazole]"
  valueMeasured: "> 50 µM"
